I'd be grateful if you could share measured pIC50 for these entries.
# System: Jurkat
# protocol details: Antiproliferative activity against human Jurkat cells after 72 hrs by MTT assay
# Type: functional, cell-based
Give bare numbers, as −log10 of the molar value.

compound | target system | measurement type | reading
CC(=O)Nc1ccc(-c2ccnc(Nc3ccc(OCCCCCCCC(=O)NO)cc3)n2)cc1 | Jurkat | pIC50 | 5.46
CC(=O)Nc1ccc(-c2ccnc(Nc3ccc(OCCCCCC(=O)NO)cc3)n2)cc1 | Jurkat | pIC50 | 5.99

Can you give me pIC50 for all of these, one by one?
1. CC(=O)Nc1ccc(-c2ccnc(Nc3ccc(OCCCCCCC(=O)NO)cc3)n2)cc1
2. CC(CCCCCC(=O)NO)n1cc(-c2ncnc3[nH]ccc23)cn1 (stereo not given)
3. CC(=O)Nc1ccc(-c2ccnc(Nc3cccc(OCCCCCC(=O)NO)c3)n2)cc1
4. CC(=O)Nc1ccc(-c2ccnc(Nc3cccc(OCCCCCCC(=O)NO)c3)n2)cc1

5.75
6.33
5.92
5.97

I'd like to know its pIC50. The compound in question is "CC(=O)Nc1ccc(-c2nc(Nc3cccc(OCCCCCCCC(=O)NO)c3)ncc2C)cc1"
5.00

====

# protocol details: Selectivity index, ratio of CC50 for human AC10 cells to IC50 for human XG6 cells
# Format: toxicity
# test settings: AC10 cells (CC50) and XG6 cells (IC50)
measurement type: selectivity ratio
Numbers only.

Recorded selectivity ratio, per entry:
chemical string | selectivity ratio
CC(=O)Nc1ccc(-c2ccnc(Nc3cccc(OCCCCCCC(=O)NO)c3)n2)cc1 | 0.64
CC(=O)Nc1ccc(-c2nc(Nc3cccc(OCCCCCCCC(=O)NO)c3)ncc2C)cc1 | 2.49
CC(=O)Nc1ccc(-c2ccnc(Nc3ccc(OCCCCCCC(=O)NO)cc3)n2)cc1 | 1.15
CC(=O)Nc1ccc(-c2ccnc(Nc3ccc(NC(=O)CCCCCCC(=O)NO)cc3)n2)cc1 | 6.16

Please examine the following record next.
I'd like to know its selectivity ratio. The compound in question is "CC(=O)Nc1ccc(-c2ccnc(Nc3cccc(OCCCCCC(=O)NO)c3)n2)cc1"
0.79

====

# protocol details: Selectivity index, ratio of CC50 for mouse TAMH cells to IC50 for human HCT116 cells
# Format: toxicity
# test settings: TAMH cells (CC50) and HCT116 cells (IC50)
Returns: string. Value is True if measured selectivity ratio is below 6, and False if it is greater than or equal to it.

Here's what some known entries look like.
chemical string | class
CC(=O)Nc1ccc(-c2ccnc(Nc3cccc(OCCCCCCC(=O)NO)c3)n2)cc1 | False
O=C(CCCCCCC(=O)Nc1ccc(-c2ccnc(Nc3ccccc3)n2)cc1)NO | False

Is the reported selectivity ratio for "Cc1cnc(Nc2ccc(N3CCN(C)CC3)cc2)nc1-c1ccc(NC(=O)CCCCCCC(=O)NO)cc1" strictly below 6?
False

Is the reported selectivity ratio for "CC(=O)Nc1ccc(-c2ccnc(Nc3cccc(NC(=O)CCCCCCC(=O)NO)c3)n2)cc1" strictly below 6?
False

====

# protocol details: Selectivity index, ratio of CC50 for human AC10 cells to IC50 for human MDA-MB-231 cells
# Assay type: toxicity
# test settings: AC10 cells (CC50) and MDA-MB-231 cells (IC50)
measurement type: selectivity ratio
Give bare numbers.

Recorded selectivity ratio, per entry:
chemical string | selectivity ratio
O=C(CCCCCCC(=O)Nc1ccc(-c2ccnc(Nc3ccc(N4CCOCC4)cc3)n2)cc1)NO | 4.02
CC(=O)Nc1ccc(-c2nc(Nc3cccc(OCCCCCCCC(=O)NO)c3)ncc2C)cc1 | 1.81
O=C(CCCCCCC(=O)Nc1ccc(-c2ccnc(Nc3cccc(N4CCCCC4)c3)n2)cc1)NO | 4.02
CC(=O)Nc1ccc(-c2ccnc(Nc3cccc(OCCCCCCC(=O)NO)c3)n2)cc1 | 1.7
Cc1cnc(Nc2ccc(N3CCN(C)CC3)cc2)nc1-c1ccc(NC(=O)CCCCCCC(=O)NO)cc1 | 3.84

Can you give me selectivity ratio for all of these, one by one?
1. CN1CCN(CC(=O)Nc2ccc(-c3ccnc(Nc4cccc(OCCCCCCC(=O)NO)c4)n3)cc2)CC1
2. CC(=O)Nc1ccc(-c2nc(Nc3cccc(OCCCCCCC(=O)NO)c3)ncc2C)cc1
3. CC(=O)Nc1ccc(-c2ccnc(Nc3ccc(OCCCCCCC(=O)NO)cc3)n2)cc1

9.65
3.46
1.53
